- assay_protocol: Compounds was tested for the effect of L-nucleosides of ribavirin on SEB (staphylococcal enterotoxin B)-stimulated T-cell expression of the type 1 cytokine IL-2.
- Format: functional, Homo sapiens
- Parameters: concentration or dose not given beside the values

compound	Control (%)
NC(=O)c1ncn([C@@H]2O[C@H](CO)[C@@H](O)[C@H]2O)n1 [RIBAVIRIN]	143
NC(=O)c1ncn([C@@H]2C[C@@H](O)[C@H](CO)O2)n1	108
NC(=O)c1ncn([C@H]2O[C@@H](CO)[C@H](O)[C@@H]2O)n1	131
Cl.N=C(N)c1ncn([C@H]2O[C@@H](CO)[C@H](O)[C@@H]2O)n1	133
NC(=O)c1ncn([C@H]2O[C@@H](CO)[C@@H](O)[C@@H]2O)n1	100
NC(=O)c1ncn([C@H]2O[C@@H](CO)C[C@@H]2O)n1	115

Each recorded value in this set is attributed to ChEMBL document CHEMBL1133712.
